Where do the numbers come from? From patent US9526739B2.

target.or.system: human P2Y1 receptor (Homo sapiens)
Construct: T. K. Harden, University of North Carolina School of Medicine
Sequence (P47900 whole entry): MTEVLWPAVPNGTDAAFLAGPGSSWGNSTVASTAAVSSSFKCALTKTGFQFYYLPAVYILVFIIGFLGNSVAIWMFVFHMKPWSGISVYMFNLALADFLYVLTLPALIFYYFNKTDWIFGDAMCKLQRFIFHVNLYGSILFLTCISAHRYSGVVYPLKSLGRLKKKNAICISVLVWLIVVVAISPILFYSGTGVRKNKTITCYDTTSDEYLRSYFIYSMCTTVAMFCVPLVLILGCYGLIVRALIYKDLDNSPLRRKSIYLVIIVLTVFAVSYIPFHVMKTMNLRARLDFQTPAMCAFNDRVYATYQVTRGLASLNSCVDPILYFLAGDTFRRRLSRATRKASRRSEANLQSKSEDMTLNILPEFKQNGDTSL
assay.overview: FLIPR assay of calcium flux in 1321N1 astrocytoma cells stably expressing the human P2Y1 receptor
condition.parameters: 1321N1 cells stably expressing hP2Y1, FLIPR-Tetra, n=3; read-out: EC50, Ca2+ flux, hP2Y1 receptor
observed.property: pEC50
Keep it numeric: pEC50 is minus log10 of the concentration in mol/L.

Recorded pEC50 for Nc1nc(Cl)nc2c1ncn2[C@H]1[C@H](O)[C@H](O)C2(COP(=O)(O)O)C[C@H]12 (stereo partly shown) with human P2Y1 receptor (Homo sapiens), please?
6.14

###

Tested on: CSQ heart failure mice
assay.overview: Echocardiography-derived fractional shortening in CSQ heart failure mice after 28 days of subcutaneous minipump infusion
Type: in vivo, mouse
condition.parameters: 3.3 μM, 28 days of infusion, CSQ mice
observed.property: cardioprotection in the CSQ model (in words)

>>> reported_value("Nc1ncnc2c1ncn2[C@H]1[C@H](O)[C@H](O)C2(CCP(=O)(O)O)C[C@H]12 (some centres unmarked)")
"not protective"
>>> reported_value("Nc1ncnc2c1ncn2[C@H]1[C@H](O)[C@H](O)C2(/C=C/P(=O)(O)O)C[C@H]12 (some centres unmarked)")
"not protective"
>>> reported_value("Nc1nc(Cl)nc2c1ncn2[C@H]1[C@H](O)[C@H](O)C2(/C=C/P(=O)(O)O)C[C@H]12 (some centres unmarked)")
"not protective"
